# Test system: SF-539
# assay.comment: NCI tumour cell line growth inhibition, 48 h
The source made the active and inactive calls. Cut-off read from the data, not from the text of the source: active = GI50 up to about 1.1 µM and inactive = higher.
// values below are reported GI50

Guide cases for GI50, answers given:
molecule: COC(=O)CC(=O)C[P+](c1ccccc1)(c1ccccc1)c1ccccc1
recorded.result: 197 µM (inactive)

molecule: CC(C)(Cl)C(Br)CC/C(CBr)=C(/Cl)CCl.CC(C)(Cl)C(Br)CC/C(CBr)=C(\Cl)CCl (stereo not given)
recorded.result: 2.07 µM (inactive)

molecule: COc1ccc2oc(C(=O)O)c3c2c1CCC3CCC(=O)O (stereo not given)
recorded.result: > 100 µM (inactive)

Q: Consider the molecule shown here: CCOC(=O)c1ccc2c(c1)nc1n2C(c2c(F)cccc2F)SC1 (stereo not given) What is its recorded GI50?
Result: 21.4 µM (inactive)

Q: Consider the molecule shown here: O=C(O)c1c(CC(Cc2ccccc2)C(=O)O)ccc2c1CCC2 (stereo not given) What is its recorded GI50?
Result: > 100 µM (inactive)

Q: Consider the molecule shown here: O=C(Nc1cc(Cl)c(Cl)cc1Cl)C(=O)C(C(=O)c1ccc2ccccc2c1)C1OC(=O)c2ccccc21 (stereo not given) What is its recorded GI50?
Result: 3.39 µM (inactive)

---

# Test system: BT-549
# assay.comment: NCI tumour cell line growth inhibition, 48 h
Active and inactive are the calls of the source. Cut-off read from the data, not from the text of the source: active = GI50 up to about 1.1 µM and inactive = higher.
Would you mind answering with one of these outcomes? active, inactive

Q: // param item: `CC(C)C[C@H](NC(=O)[C@H](CCc1ccccc1)NC(=O)c1ccc2ccccc2n1)B(O)O` ; yields the recorded call
Result: active

Q: // param item: CC(=O)OCC(=O)O[C@@H]1[C@H]2[C@@H](OC(=O)c3ccccc3)[C@@H](C)C[C@]2(O)[C@H](OC(C)=O)[C@@]2(C)C(OC(C)=O)[C@]1(OC(C)=O)C[C@H]1C(=O)C(C)(C)C[C@@H]12 (some centres not stated) ; yields the recorded call
Result: inactive

Q: // param item: `CC(C)(C)c1ccc(OCCOc2ccc(C(C)(C)C)cc2N)c(N)c1` ; yields the recorded call
Result: inactive

Q: // param item: `CN(C)CCCN1c2ccc([N+](=O)[O-])cc2CCc2cc([N+](=O)[O-])ccc21` ; yields the recorded call
Result: inactive

Q: // param item: `Cc1cc(C#N)c(Nc2c(C)cccc2[N+](=O)[O-])s1` ; yields the recorded call
Result: inactive

Q: // param item: `COC(=O)[C@H](CC(C)C)NC1=C(Cl)C(=O)c2c(O)ccc(O)c2C1=O` ; yields the recorded call
Result: inactive

Q: // param item: `CC(C)=CCNc1ncnc2c1ncn2CCC#N` ; yields the recorded call
Result: inactive

Q: // param item: `C#C[C@]1(O)CC[C@H]2[C@@H]3CCC4=C/C(=N/NC(=O)c5cccc6cc7ccccc7nc56)CC[C@@H]4[C@H]3CC[C@@]21CC` ; yields the recorded call
Result: inactive

Q: // param item: CCC1(N)C(=O)OCc2c1cc1n(c2=O)Cc2cc3ccccc3nc2-1 (configuration not stated) ; yields the recorded call
Result: inactive

Q: // param item: CCCCCCCCCCCCC(O)C1CCC(C(O)CCCCCCC(O)CCCCCCCC2=CC(C)OC2=O)O1 (configuration not stated) ; yields the recorded call
Result: inactive

Q: // param item: `c1ccc(CCNc2ccccn2)nc1` ; yields the recorded call
Result: inactive

Q: // param item: `CCOC(=O)c1ccc2nc(-c3ccc(S(=O)(=O)F)cc3)cc(O)c2c1` ; yields the recorded call
Result: inactive

Q: // param item: `CCOC(=O)c1ccc(-n2cnc(-c3ccc([N+](=O)[O-])cc3)c2)cc1` ; yields the recorded call
Result: inactive

Q: // param item: `COc1ccc(NC(C)=O)c(C(=O)CCNC(C)=O)c1` ; yields the recorded call
Result: inactive

---

// values below are reported GI50
# Test system: 786-0
# assay.comment: NCI tumour cell line growth inhibition, 48 h
The source made the active and inactive calls. Rule as the data show it: active = GI50 up to about 1.1 µM and inactive = higher.

Q: Consider the compound shown here: `Cc1csc(-n2c(C)nc3cc(Cl)ccc3c2=O)n1` What is its recorded GI50?
Result: > 100 µM (inactive)

Q: Consider the compound shown here: O=C1NC2C=CN(Cc3ccccc3)C=C2C(=O)N2CCCC12 (stereo unspecified) What is its recorded GI50?
Result: > 100 µM (inactive)

Q: Consider the compound shown here: COc1ccccc1NC(=O)C(=O)C(c1cnc2ccc([N+](=O)[O-])cc2n1)[N+](=O)[O-] (stereo unspecified) What is its recorded GI50?
Result: > 100 µM (inactive)

Q: Consider the compound shown here: `Cc1cc(C#N)c(Nc2c(C)cccc2[N+](=O)[O-])s1` What is its recorded GI50?
Result: 26.9 µM (inactive)

Q: Consider the compound shown here: CCOC(=O)C1c2[nH]c3ccccc3c2CCN1C(=O)c1ccc(OC)o1 (stereo unspecified) What is its recorded GI50?
Result: > 10 µM (inactive)

Q: Consider the compound shown here: CCCCCCCC(=O)OCC(COC(=O)C(C)(C)C)OC(=O)Cc1ccccc1 (stereo unspecified) What is its recorded GI50?
Result: > 100 µM (inactive)

Q: Consider the compound shown here: `Nc1nc(S)nc2snnc12` What is its recorded GI50?
Result: > 100 µM (inactive)

Q: Consider the compound shown here: `O=C1N[C@@H]2c3c(csc3Br)C(=O)[C@@H]2O1` What is its recorded GI50?
Result: 33.2 µM (inactive)

Q: Consider the compound shown here: `O=Cc1ccc2[nH]c(=O)oc2c1` What is its recorded GI50?
Result: > 100 µM (inactive)

Q: Consider the compound shown here: `O=C(O)CC[N+]1=CCC(c2ccccc2)(c2ccccc2)O1` What is its recorded GI50?
Result: > 100 µM (inactive)

Q: Consider the compound shown here: `CCOc1ccc2c(c1)[n+]([O-])c(-c1ccccc1Cl)c(N)[n+]2[O-]` What is its recorded GI50?
Result: > 100 µM (inactive)

---

// values below are reported GI50
# System: RPMI-8226
# assay.comment: NCI tumour cell line growth inhibition, 48 h
The source made the active and inactive calls. No stated cut-off is given here; in the data, active = GI50 up to about 1.1 µM and inactive = higher.

Guide cases for GI50, answers given:
molecule: Cc1ccc(C(=O)Nc2ccc(S(=O)(=O)O)c3cc(S(=O)(=O)O)cc(S(=O)(=O)O)c23)cc1NC(=S)Nc1cc(C(=O)Nc2ccc(S(=O)(=O)O)c3cc(S(=O)(=O)O)cc(S(=O)(=O)O)c23)ccc1C
GI50: > 75 µM (inactive)
//
molecule: CCN(CC)CCOCCn1c2c(c3ccccc31)CCCC2
GI50: 20.4 µM (inactive)
//
molecule: CC(=O)C(=Cc1cn(C)c(=O)n(C)c1=O)C(C)=O
GI50: 89.9 µM (inactive)
//
molecule: CCSCCCC(=O)O
GI50: > 100 µM (inactive)
//
molecule: CCOC(=O)c1cnc(-n2[nH]c(C)c(CCO)c2=O)[nH]c1=O
GI50: > 100 µM (inactive)
//
molecule: CCOC(=O)C1c2[nH]c3ccccc3c2CCN1C(=O)c1ccc(OC)o1 (stereo not given)
GI50: > 10 µM (inactive)
//
molecule: Cc1cc(Cl)cc2c1NC(=O)C2(O)C(C)C(=O)c1ccc(Cl)cc1 (stereo not given)
GI50: 31.8 µM (inactive)
//
molecule: O=C1c2ccccc2C(=O)N1CCSCC(CO)SCCN1C(=O)c2ccccc2C1=O (stereo not given)
GI50: 80.2 µM (inactive)
//
molecule: C/C(=N\NC(=S)N1CCN(C)CC1)c1nc2cccnc2[nH]1
GI50: > 100 µM (inactive)
//
molecule: O=C(c1ccccc1)C1C[C@H]2CO[C@H](c3ccccc3)N2C1=O (stereo not given in full)
GI50: > 100 µM (inactive)

Q: Consider the molecule shown here: `O=C1N[C@@H]2c3c(csc3Br)C(=O)[C@@H]2O1` What is its recorded GI50?
Result: 26.9 µM (inactive)

Q: Consider the molecule shown here: N#CC(C#N)=Cc1ccc(C(O)P(=O)(O)O)cc1 (stereo not given) What is its recorded GI50?
Result: > 100 µM (inactive)

Q: Consider the molecule shown here: Cc1cc(Cl)ccc1NC(=O)C1C(=O)C(=O)N(c2ccc(Cl)cc2C)C1=O (stereo not given) What is its recorded GI50?
Result: 29 µM (inactive)

Q: Consider the molecule shown here: `CCOC(=O)c1c(Nc2ccccc2)sc2cccnc12` What is its recorded GI50?
Result: 2.05 µM (inactive)

Q: Consider the molecule shown here: `C[n+]1c(-c2ccc(/C=C/C=N\NC(=O)c3ccc(C(=O)N/N=C\C=C\c4ccc(-c5cn6ccccc6[n+]5C)cc4)cc3)cc2)cn2ccccc21` What is its recorded GI50?
Result: 38.1 µM (inactive)

Q: Consider the molecule shown here: CC1C(=O)CC(c2cccs2)N(N=O)C1c1cccs1 (stereo not given) What is its recorded GI50?
Result: 23.7 µM (inactive)

Q: Consider the molecule shown here: COC(=O)C(COC(C)=O)NC(=O)/C=C/c1ccc(O)c(OC(C)=O)c1 (stereo not given) What is its recorded GI50?
Result: 29.6 µM (inactive)

Q: Consider the molecule shown here: CCCCCCC(O)C(=O)OC1C2C(CC1(C)C)C(O)C13OC1C(O)C1(CO1)[C@@]23C (stereo not given in full) What is its recorded GI50?
Result: 40.9 µM (inactive)

Q: Consider the molecule shown here: CC(=O)O[C@H]1CC[C@@]2(C)C(=CC[C@@H]3C2CC[C@]2(C)Nc4c(cnn4-c4ccccc4)CC32)C1 (stereo not given in full) What is its recorded GI50?
Result: 2.09 µM (inactive)

Q: Consider the molecule shown here: `O=C1NC(N2CCCCC2)=N/C1=C\c1ccccc1` What is its recorded GI50?
Result: > 100 µM (inactive)
